Recorded values, source ChEMBL document CHEMBL4145579.

Test system: Plasmodium falciparum
Assay: Antiplasmodial activity against mature gametocytes of Plasmodium falciparum NF54 […] by standard membrane feeding assay
Format: functional, organism-based
metricName: IC50 (nM)
All answers are understood in nM, so give the number only.

Input line: So what does the record say about IC50 for `Cc1cn2c(-c3ccnc(NCC4CC4)n3)c(-c3ccc(F)c(NS(C)(=O)=O)c3)nc2cc1CN(C)C` ?
Output line: 41

---

Reported pIC50 by item:
Test system: Plasmodium falciparum
Experiment: Antiplasmodial activity against mature gametocytes of Plasmodium falciparum 3D7 […]
Format: functional, organism-based
Give only the number. pIC50 is defined as minus log10 of concentration in molar units.

Recorded pIC50, per entry:
Cc1cn2c(-c3ccnc(NCC4CC4)n3)c(-c3ccc(F)c(NS(C)(=O)=O)c3)nc2cc1CN(C)C | 8.68
CN1CCC(c2cc(-c3ccncc3)c(-c3ccc(F)cc3)[nH]2)CC1 | 6.31

Input line: So what does the record say about pIC50 for `CN(C)Cc1ccn2c(-c3ccnc(NCC4CC4)n3)c(-c3cccc(S(C)(=O)=O)c3)nc2c1` ?
Output line: 6.99

---

Tested on: Plasmodium falciparum
Assay: Antiplasmodial activity against chloroquine-sensitive Plasmodium falciparum D6 infected in human red blood cells preincubated for 24 hrs followed by [3H]-hypoxanthine addition measured after 18 hrs by scintillation counting
Type: functional, organism-based
pIC50: −log10 of the molar value.
metricName: pIC50

Input line: So what does the record say about pIC50 for `O=C1Nc2ccc(Br)cc2/C1=C\C(=O)c1ccc(F)cc1` ?
Output line: < 4.85
